// provenance: the supplement of paper PMC6555819

tested on: FXR:RXRa (NR concentration 270 nM, RXRa partner concentration 90 nM); test: PBM binding z-score (relative to random genomic background probes); higher = stronger binding; sequences stand for … in GC…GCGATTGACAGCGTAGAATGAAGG
reported_metric: PBM binding z-score
Just the number, please, no unit attached.

Notebook: `TCATATAGGAAAAAGGTGAAAGTCGGTGTGGTAA` , PBM binding z-score read as 1.37

According to the records, this sequence `ATATGTAGGTTATCGAGTCATTCAGTTTGCGCAT` displays PBM binding z-score of 0.672

Record summary for `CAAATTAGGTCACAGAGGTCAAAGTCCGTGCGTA` : reported PBM binding z-score = 7.48

Per the records, this sequence ( `ACTTACGGGTCAACGATGTTATAGCACGCGTATA` ) has PBM binding z-score equal to 6.28

get_value(item= `ACCCGGAGGACAAAGGTCAGAGCTACGCCAGTGA` , readout=PBM binding z-score) returns 4

Record `CCGACTGGGGCAAAAGGTTACCATAAGCCAGCCC` . Reported PBM binding z-score: 0.815

The sequence `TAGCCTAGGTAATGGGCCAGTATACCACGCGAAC` showed PBM binding z-score equal to -0.654

Field PBM binding z-score (entry `GCATATAGGTAATACAAGGTGAAAGCCCGATTGT` ) reads 1.68

Entry `TAACCTAGGTCATGGGCCAGTATACCACGCGAAC` ; PBM binding z-score = 5.24

Kindly note the recorded PBM binding z-score for `CTCGAAAGGTCGTGCTCAGGTGATTATACCAAAC` , which is 4.98

The reported PBM binding z-score of the sequence `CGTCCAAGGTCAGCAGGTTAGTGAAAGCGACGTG` was 4.92

Sample `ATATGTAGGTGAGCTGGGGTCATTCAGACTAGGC` ; PBM binding z-score observed: 4.23

Kindly note the recorded PBM binding z-score for `TCATATAGGTAAACAGGCGAAAGTCCGTAAGTTA` , which is 0.58

PBM binding z-score reading for `CCTACTGGGCCACGAAAGGTCAGTGATTCAGTGA` : 1.7

sequence `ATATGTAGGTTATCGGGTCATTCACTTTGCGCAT` , PBM binding z-score observed: 3.3

Data point: `TCTCGGAGGACACGAAAGCTCAGAGCTCGACATC` ; PBM binding z-score = 0.278

Just so you know, measured PBM binding z-score for `ACTTACCGGTCAACGAGGTTATAGCACGCGTATA` came out at 2.61

The sequence listed as `CAAACTAGGTCACCGGAAGGTCAGAGTCCGCATG` shows PBM binding z-score equal to 5.32

The sequence listed as `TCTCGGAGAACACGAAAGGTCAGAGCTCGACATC` shows PBM binding z-score equal to 2.02

Note to self: PBM binding z-score recorded for `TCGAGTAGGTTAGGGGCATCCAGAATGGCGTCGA` was 0.419

Short answer for `GATACAGGGTCAGCTAGAGACCAGAGTATGGAAA` : PBM binding z-score was 4.21

---

test system: PPARg:RXRa 30nM:10nM, anti-RXR (NR concentration 30 nM, RXRa partner concentration 10 nM); assay: PBM binding z-score (relative to random genomic background probes); higher = stronger binding; sequences stand for … in GC…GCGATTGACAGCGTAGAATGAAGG
Where PBM binding z-score equals or exceeds 0.7, the correct label is T; where it does not, the label is F.

Q) Assess whether reported PBM binding z-score for `CCTACTGCGCCAAAGGTCATTGATTCCAATGCTC` sits at 0.7 or higher.
A) T

Q) // inclusive: PBM binding z-score at least 0.7? input: `CTCGAAAGGTCGCGCTCAGGTGAGTATACCAAAC`
A) T

Q) Does `CGTCCAAGGTAATAGGAGGTCAGTGAAGACAGAT` have a reported PBM binding z-score of at least 0.7?
A) F

Q) Check the entry `CGTCCAAGATCAGAGAGGTCAGTGAATGCCGAGT` : does PBM binding z-score equal or exceed 0.7?
A) F

Q) Threshold query (PBM binding z-score >= 0.7) on `TGAATGAGGTTATAATATCAGGGAACGTTGCAAA`
A) T

---

Assignment: determine reported PBM binding z-score for the given sequences.
system: RARb:RXRa (NR concentration 270 nM, RXRa partner concentration 90 nM); test: PBM binding z-score (relative to random genomic background probes); higher = stronger binding; sequences stand for … in GC…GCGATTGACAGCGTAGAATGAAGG
Give the figure only, with no unit attached.

PBM binding z-score recorded for this sequence, `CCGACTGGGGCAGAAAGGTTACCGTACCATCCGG` , is 1.84

Entry `ACAATTAGTTGACTTAGGGCAACCGATACGACGC` , PBM binding z-score reported as 0.888

// recorded PBM binding z-score for `AATACAGGGACACTAGGCCAGAGTAGGTACGAAT` : 0.688

Entry `ATCGGAAGGTCGACGAGGTGAGTATACACCGTTT` — recorded PBM binding z-score = 2.51

The recorded PBM binding z-score for `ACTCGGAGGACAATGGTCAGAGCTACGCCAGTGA` is 1.23

Reported PBM binding z-score ( `CGAACTAGGTCATCCGGGACAGTGAATACATTGA` ) = 4.09

Given item `CGAACTAGGTCATTGCCAGGACAGTGAATAGTAA` , the value recorded as its PBM binding z-score is 3.44

Lab book: PBM binding z-score of `TCGAGTAGGCTACCAATGGGGCATTCAGCTTTCT` noted as -0.208

Briefly, PBM binding z-score measured for `CGAACTAGGTCAGAACAGGCCAGTGAAGGATGAT` : 2.97

Entry `CAAACTAGGTCAAAGGTCAATGTCGAGCCAACCA` — recorded PBM binding z-score = 5.51

// field: PBM binding z-score; key: `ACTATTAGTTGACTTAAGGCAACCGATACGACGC` ; value = 0.296

Reported PBM binding z-score for `CCTTACGGGTCACTGACAGGTTTTAGCATTTGGA` was 3.88

response.value for `CTACCAAGGTGAACAAGGTCGTTGGTTACTATTC` (field: PBM binding z-score) = 2.14

Entry under test: `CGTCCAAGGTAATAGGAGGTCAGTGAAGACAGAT` . Its PBM binding z-score was 2.23

According to the records, this sequence `ATCTCTAGGTAACAAGTTCCGTGAAAGAGAGGAC` displays PBM binding z-score of 0.274

Notebook: `GCATATAGGTAATACAAGGTGAAAGTACGATTGT` , PBM binding z-score read as 0.387

Input `AGTCAAAGTTCACTAGGTAACGGAAGATTCAGCT` . Output PBM binding z-score: 4.71

PBM binding z-score for `GGATCGAGGGCATTCGAGTTGATAGCATGGCGAT` is 1.83

PBM binding z-score measured on `ACTATTGGTTGACTTAGGGCAACCGATACGACGC` = 0.653

Entry `CCTTACGGGTCACGACGTTATAGCACGACGAGCG` ; PBM binding z-score = 4.34

According to the records, this sequence `CGTCCTAGGTCAGAGAGGTCAGTGAATGCCGAGT` displays PBM binding z-score of 4.4

Memo: `CCTAGTTGGTCAAGATCACACACGCTATAGGTAC` , reported PBM binding z-score: 1.03

Briefly, PBM binding z-score measured for `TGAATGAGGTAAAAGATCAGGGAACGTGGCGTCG` : 0.0467

// `AGAATGAGGTTATACGTAGCTCAGGGAAGAAAGT` : PBM binding z-score value = 1.11

Lab note: measured PBM binding z-score of `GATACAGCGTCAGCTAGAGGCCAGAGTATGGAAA` was -0.322

Reported PBM binding z-score for `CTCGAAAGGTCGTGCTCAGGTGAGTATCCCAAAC` was 3.83

Entry `TGGCAAAGTTCAAAGGTAACGTAAGTATCCACAC` — recorded PBM binding z-score = 5.11

The sequence identified as `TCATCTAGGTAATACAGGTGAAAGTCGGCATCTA` registered its PBM binding z-score at 0.575

Entry `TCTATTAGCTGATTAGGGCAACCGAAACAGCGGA` — recorded PBM binding z-score = 0.444

Record `TCTGCTAGGTCAACGATGGTCATCTAATCTGCTA` . Reported PBM binding z-score: 4.09

What the record says about `TCATATAGCTAAAAGGTGAAAGTCGGTGTGGTAA` : PBM binding z-score is 1.5

For reference, reported PBM binding z-score for `TAGCCTAGGTCAGATCGGGCCAGTATTCGCTATA` stands at 3.14

Per the records, this sequence ( `ATATGTAGGTTATCGGGGCATTCAGTTTGCGCAT` ) has PBM binding z-score equal to 1.7

Measured PBM binding z-score, `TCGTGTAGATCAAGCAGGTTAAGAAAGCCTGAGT` : 0.0461

For this sequence ( `CAAAGTAGGTCAAAGGTCAAAGTCGAGCCAACCA` ), measured PBM binding z-score is 5.92
